Observed pKi for Alpha-1D adrenergic receptor (Homo sapiens), reported per entry below.
pKi: −log10 of the molar value.

Sample answers from the record:
• CN(C(=O)CNCCN1C(=O)CC2(CCCC2)CC1=O)c1cc(Cl)ccc1Cl = < 6.00
• O=C1CC2(CCCC2)CC(=O)N1CCNCCOc1ccccc1Cl = < 6.00

# context switch: different compound, same pKi
Inquiry: Quick check: pKi on Alpha-1D adrenergic receptor (Homo sapiens), item CN(CCN1C(=O)CC2(CCCC2)CC1=O)CC(=O)N(C)c1cc(Cl)ccc1Cl ?
Reply text: < 6.00

###

Observed pKi for Alpha-1D adrenergic receptor (Homo sapiens), reported per entry below.
Here pKi is given on a logarithmic scale as minus log10 of the concentration in mol/L.

• O=C1CC2(CCCC2)CC(=O)N1CCN1CCN(c2ccc(Cl)cc2)CC1 = 7.45

Inquiry: Quick check: pKi on Alpha-1D adrenergic receptor (Homo sapiens), item O=C1CC2(CCCC2)CC(=O)N1CCN1CCN(c2cc(Br)ccc2Br)CC1 ?
Reply text: 8.43

Inquiry: Quick check: pKi on Alpha-1D adrenergic receptor (Homo sapiens), item COc1ccccc1N1CCN(CCN2C(=O)CC3(CCN(Cc4ccccc4)CC3)CC2=O)CC1 ?
Reply text: 7.45

Inquiry: Quick check: pKi on Alpha-1D adrenergic receptor (Homo sapiens), item CCOC(=O)c1ccccc1N1CCN(CCN2C(=O)CC3(CCCC3)CC2=O)CC1 ?
Reply text: 7.54

Inquiry: Quick check: pKi on Alpha-1D adrenergic receptor (Homo sapiens), item CN(CCOc1cc(Cl)ccc1Cl)CCN1C(=O)CC2(CCCC2)CC1=O ?
Reply text: 7.72

Inquiry: Quick check: pKi on Alpha-1D adrenergic receptor (Homo sapiens), item N#Cc1ccccc1N1CCN(CCN2C(=O)CC3(CCCC3)CC2=O)CC1 ?
Reply text: 9.03
